Each recorded value in this set is attributed to patent US20240417408A1.

Give measured pIC50 for each item. Keep answers brief.
# Assay system: interaction between KRAS G12C and cRAF-RBD (Homo sapiens, UniProt P01116, G12C)
# Construct: TEV protease site (ENLYFQG)
# Sequence (P01116 with tags, fused parts or gaps isoform P01116-2 G12C): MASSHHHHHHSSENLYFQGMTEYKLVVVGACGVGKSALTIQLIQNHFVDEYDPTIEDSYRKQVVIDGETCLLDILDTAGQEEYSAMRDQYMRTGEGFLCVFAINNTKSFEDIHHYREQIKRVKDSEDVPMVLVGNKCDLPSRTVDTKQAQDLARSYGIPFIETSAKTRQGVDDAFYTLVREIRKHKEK
# Method summary: Test Example 2: inhibitory activity on interaction between KRAS G12C and cRAF (Alpha technology)
# Study conditions: GMPPNP-bound KRAS G12C incubated with compound at 25° C. for 1 hour, then cRAF-RBD
Answers are plain numbers, as −log10 of the molar value.

Solved cases (5 shown):
Compound	Recorded value
C#Cc1cccc2cc(O)cc(C3Cc4nc(OC[C@@H]5CCCN5C)nc(N5CCN(C(=O)/C=C/CN[C@H]6CC[C@H](OC)CC6)[C@@H](CC#N)C5)c4CO3)c12 (some centres unmarked) [Example 9]	6.88
C#Cc1cccc2cc(O)cc([C@@H]3Cc4nc(OC[C@@H]5CCCN5C)nc(N5CCN(C(=O)/C=C/CN6CCC(OC)CC6)[C@@H](CC#N)C5)c4CO3)c12 [Example 7]	7.30
COC1CCN(C/C=C/C(=O)N2CCN(c3nc(OC[C@@H]4CCCN4C)nc4c3COC(c3cccc5cccc(Br)c35)C4)C[C@@H]2CC#N)CC1 (some centres unmarked) [Example 5]	5.55
C#Cc1cccc2cc(O)cc(C3Cc4nc(OC[C@@H]5CCCN5C)nc(N5CCN(C(=O)/C=C/CN6CCC(OC)CC6)[C@@H](CO)C5)c4CO3)c12 (some centres unmarked) [Example 19]	5.45
COC1CCN(C/C=C/C(=O)N2CCN(c3nc(OC[C@@H]4CCCN4C)nc4c3COC(c3cccc5ccccc35)C4)C[C@@H]2CC#N)CC1 (some centres unmarked) [Example 4]	5.02

# per-item lookup of pIC50; items listed below
1. C#Cc1cccc2cc(O)cc([C@@H]3Cc4nc(OCC5(CN(C)C)CC5)nc(N5CCN(C(=O)/C=C/CN6CCC(OC)CC6)[C@@H](CC#N)C5)c4CO3)c12 [Example 13]
2. C#Cc1cccc2cccc([C@@H]3Cc4nc(OCC5(CN6CCOCC6)CC5)nc(N5CCN(C(=O)/C=C/CN6CCC(OC)CC6)[C@@H](CC#N)C5)c4CO3)c12 [Example 12]
3. CO[C@H]1CC[C@H](NC/C=C/C(=O)N2CCN(c3nc(OC[C@@H]4CCCN4C)nc4c3CO[C@H](c3cc(O)cc5cccc(Br)c35)C4)C[C@@H]2CC#N)CC1 [Example 11]
4. CN1CCC[C@H]1COc1nc2c(c(N3CCN(C(=O)/C=C/CNC4CC5CCC(C4)O5)[C@@H](CC#N)C3)n1)COC(c1cccc3ccccc13)C2 (some centres unmarked) [Example 3]

Output line:
1. 7.29
2. 6.51
3. 6.74
4. 4.94
